# System: SW-620 colon
# Measurement notes: NCI tumour cell line growth inhibition, 48 h; in the data active means GI50 below about 0.43 µM; inactive means the rest
API: response.call in 1.0 (active), 0.0 (inactive)

Worked examples, 2 compounds total:
Prompt: State the result this test recorded for COc1cc(C=NCC(=O)CSC(c2ccccc2)c2ccccc2)ccc1O .
Response: 0.0

Prompt: Same question, CN(C)CCN=c1nc2c(c(N)n1-c1ccccc1)c(=S)n(-c1ccccc1)c(=S)n2-c1ccccc1 this time
Response: 0.0

Others:
Prompt: Hi, do you know how COc1ccc(/C=C(\C#N)c2cc(OC)c(OC)c(OC)c2)cc1 came out in this test?
Response: 1.0

Prompt: // repeat for COc1ccc2c(CN3CCCC[C@H]3O)cc3cc4c(cc3c2c1)OCO4 and report
Response: 1.0

Prompt: Same read-out for CCN(CC)CC[n+]1ccc2c(C)c3[nH]c4ccccc4c3c(C)c2c1 ?
Response: 0.0

Prompt: Item: COc1ccc(C(=O)c2ccccc2)c(O)c1
Response: 0.0

----------
# Test system: SR leukemia
# Measurement notes: NCI tumour cell line growth inhibition, 48 h
Recorded metric: log10 TGI (log10 of the value in µM)
// stored as log10 of TGI expressed in µM

Prompt: Entry COC(=O)CCCc1nc2ccccc2nc1N=Nc1ccccc1 has what log10 TGI?
Response: 1.86

Prompt: Further, for COc1ccc(-c2csc3c2[N+]2(C)C=CC=C2C3N2CCCC2)cc1 (stereo not given) ?
Response: 1.55

Proceeding to the next compound to report its log10 TGI.
Prompt: // log10 TGI lookup, key: Cc1nc(C(=O)OCc2ccccc2)cc(OCc2ccccc2)c1C
Response: 1.46

----------
# Test system: SF-295 CNS
# Measurement notes: NCI tumour cell line growth inhibition, 48 h
Recorded metric: GI50

Prompt: Give SF-295 CNS GI50 for COc1cccc(C2C(C#N)=C(N)Oc3cc(OCCCCCC[P+](c4ccccc4)(c4ccccc4)c4ccccc4)ccc32)c1 (centres undefined)
Response: 1.58 µM

Prompt: Same lookup for COc1ccc(C(=O)Cn2c(C(=O)c3ccc(Cl)cc3)nc(-c3ccccc3)c2-c2ccccc2)cc1 , please.
Response: 91 µM

Prompt: Thanks! And COc1ccc(CN2c3ccccc3Sc3ccccc32)cc1O ?
Response: 0.225 µM

Further cases:
Prompt: Form field - read-out: GI50; system: SF-295 CNS; submitted item: COc1ccc(/C=C(\C#N)c2cc(OC)c(OC)c(OC)c2)cc1
Response: < 0.0156 µM

----------
# System: ACHN renal
# Measurement notes: NCI tumour cell line growth inhibition, 48 h
Recorded metric: TGI

Solved entries (count: 8):
Prompt: Recorded TGI for N.N.N.N.O=S([O-])[O-].[Co+3].[N-]=[N+]=[N-] , please?
Response: > 100 µM

Prompt: What about this compound? COc1c(NC(C)=O)c2ccccc2c2ccccc12
Response: > 100 µM

Prompt: Entry to check: COc1cc(N)c(Cl)cc1C(=O)N[C@@H]1CCN(CCCOc2ccc(F)cc2)C[C@@H]1OC
Response: > 100 µM

Prompt: And COc1cccc(C=NC23CC4CC(CC(C4)C2)C3)c1 ?
Response: > 100 µM

Prompt: Further, for COc1ccc(C(=O)Cn2c(C(=O)c3ccc(Cl)cc3)nc(-c3ccccc3)c2-c2ccccc2)cc1 ?
Response: > 100 µM

Prompt: One more compound: CC(C)C(Br)C(=O)NCC(=O)O (configuration not stated)
Response: > 100 µM

Prompt: Likewise for COc1cc(C=NCC(=O)CSC(c2ccccc2)c2ccccc2)ccc1O ?
Response: 31.8 µM

Prompt: Same lookup for CN1COCN=C1NC#N , please.
Response: > 100 µM

// below: TGI requested for another compound
Prompt: Recorded TGI of O=C(CC1(O)CCCCC1)OC1CCCC1 , please.
Response: > 100 µM
